B1: POU domain, class 2, transcription factor 1, residues 285 to 354; numbered along this chain, P14859 (parent)
chain: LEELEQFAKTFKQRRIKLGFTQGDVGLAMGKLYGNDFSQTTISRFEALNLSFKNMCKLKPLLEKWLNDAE

Variants of: B1
protocol: abundance fitness (aPCA) (normalised: wild type 0, dead -1); higher = more abundant; growth selection in yeast, the domain comes from the species named
measurement setup: Homo sapiens
For each of the variants below, state its abundance fitness.
Could you keep your reply to the number by itself?

Sure, the documented abundance fitness for A28V is -0.052

Sure, the documented abundance fitness for G19D is -0.314

Sure, the documented abundance fitness for R44C is -0.053

Sure, the documented abundance fitness for F45V is -0.429

Sure, the documented abundance fitness for A47L is 0.054

Sure, the documented abundance fitness for L66A is -0.037

Sure, the documented abundance fitness for G26S is 0.025

Sure, the documented abundance fitness for A69P is -0.112

Sure, the documented abundance fitness for S38F is -0.199

Sure, the documented abundance fitness for K31Q is -0.034

Sure, the documented abundance fitness for A8F is -0.602

Sure, the documented abundance fitness for K17C is -0.046

Sure, the documented abundance fitness for E46D is -0.754

Sure, the documented abundance fitness for W65D is -0.968

Sure, the documented abundance fitness for M29I is -0.006

Sure, the documented abundance fitness for I42C is -0.336

Sure, the documented abundance fitness for F52A is 0.017

Sure, the documented abundance fitness for M29S is -0.49

Sure, the documented abundance fitness for V25W is -0.645

Sure, the documented abundance fitness for K57I is -0.058

Sure, the documented abundance fitness for Q22H is -0.118

Sure, the documented abundance fitness for L1E is -0.124

Sure, the documented abundance fitness for A8P is -0.447

Sure, the documented abundance fitness for V25I is -0.094

Sure, the documented abundance fitness for L48N is -0.03

Sure, the documented abundance fitness for I42Y is -0.674

Sure, the documented abundance fitness for G26N is -0.033

Sure, the documented abundance fitness for F45I is -0.382

Sure, the documented abundance fitness for D24M is -0.11

Sure, the documented abundance fitness for G34F is -0.276

Sure, the documented abundance fitness for N35S is -0.038

Sure, the documented abundance fitness for D36P is -0.058

Sure, the documented abundance fitness for L48A is -0.054

Sure, the documented abundance fitness for K53L is 0.008

Sure, the documented abundance fitness for L62Q is -0.913

Sure, the documented abundance fitness for T41D is -0.018

Sure, the documented abundance fitness for A47D is 0.092

Sure, the documented abundance fitness for E3V is -0.118

Sure, the documented abundance fitness for K12Y is -0.157

Sure, the documented abundance fitness for G26R is -0.087

Sure, the documented abundance fitness for K53D is -0.029

Sure, the documented abundance fitness for V25P is -0.687

Sure, the documented abundance fitness for L48M is -0.007

Sure, the documented abundance fitness for R44K is -0.048

Sure, the documented abundance fitness for G34N is -0.041

Sure, the documented abundance fitness for F20R is -0.092
